# METHOD NOTES: Hemolytic activity
# Assay type: cell-based
# CONDITION CONTEXT: human, 0.5% red blood cell suspension; 1000 µg/mL, blood types A and B; read-out: hemolysis
RECORDED METRIC: hemolysis at 1 h, 1000 µg/mL

Form field hemolysis at 1 h, 1000 µg/mL, entry O=C(CCl)Nc1ccc(F)c([N+](=O)[O-])c1 [A2] : 37 to 47%
